Hello, the source for this data is the supplement of paper PMC7214452, in case you need it.

Test system: JeKo-1 (cancer type: Mantle)
Experiment Notes: normalized area under the dose-response curve (viability relative to DMSO control) (fraction); higher = less sensitive (more viable cells)
Condition Summary: exposure time not given
Readout Kind: normalized area under the dose-response curve

- Compound: "CO[C@H]1C[C@@H]2CC[C@@H](C)[C@@](O)(O2)C(=O)C(=O)N2CCCC[C@H]2C(=O)O[C@H]([C@H](C)C[C@@H]2CC[C@@H](OCCO)[C@H](OC)C2)CC(=O)[C@H](C)/C=C(\\C)[C@@H](O)[C@@H](OC)C(=O)[C@H](C)C[C@H](C)/C=C/C=C/C=C/1C [Everolimus]"
  Readout Value: 0.876
- Compound: "Nc1cc(C(F)(F)F)c(-c2cc(N3CCOCC3)nc(N3CCOCC3)n2)cn1 [Buparlisib]"
  Readout Value: 0.365
- Compound: "COc1cc(N2CCC(N3CCN(C)CC3)CC2)ccc1Nc1ncc(Cl)c(Nc2ccccc2P(C)(C)=O)n1 [Brigatinib]"
  Readout Value: 0.815
- Compound: "CNC(=O)c1cc(Oc2ccc(NC(=O)Nc3ccc(Cl)c(C(F)(F)F)c3)cc2)ccn1 [Sorafenib]"
  Readout Value: 0.922
- Compound: "O=C(CCCCCCC(=O)Nc1ccccc1)NO [Vorinostat]"
  Readout Value: 0.421
- Compound: "COc1cc2nccc(Oc3ccc(NC(=O)C4(C(=O)Nc5ccc(F)cc5)CC4)cc3)c2cc1OC [Cabozantinib]"
  Readout Value: 0.852
- Compound: "O=C(/C=C\\n1cnc(-c2cc(C(F)(F)F)cc(C(F)(F)F)c2)n1)NNc1cnccn1 [Selinexor]"
  Readout Value: 0.43

---

Test system: XG2 (cancer type: MM)
Experiment Notes: normalized area under the dose-response curve (viability relative to DMSO control) (fraction); higher = less sensitive (more viable cells)
Condition Summary: exposure time not given
Structures can show the parent of a compound that is named as a salt.
Readout Kind: normalized area under the dose-response curve

- Compound: "COc1cc2/c(=N/c3ccc(Br)cc3F)nc[nH]c2cc1OCC1CCN(C)CC1"
  Readout Value: 0.726
- Compound: "CC(C)C[C@H](NC(=O)[C@H](Cc1ccccc1)NC(=O)c1cnccn1)B(O)O"
  Readout Value: 0.05
- Compound: "Nc1cccc2c1C(=O)N(C1CCC(=O)NC1=O)C2=O (stereo not drawn) [Pomalidomide]"
  Readout Value: 0.77
- Compound: "Cc1ccc(F)c(NC(=O)Nc2ccc(-c3cccc4[nH]nc(N)c34)cc2)c1"
  Readout Value: 0.547
- Compound: "N#CC[C@H](C1CCCC1)n1cc(-c2ncnc3[nH]ccc23)cn1"
  Readout Value: 0.804
- Compound: "Cc1cc(Nc2ncc(Cl)c(Nc3ccccc3S(=O)(=O)C(C)C)n2)c(OC(C)C)cc1C1CCNCC1"
  Readout Value: 0.372
- Compound: "Cc1noc2c1-c1ccccc1C(c1ccc(Cl)cc1)=N[C@H]2CC(N)=O"
  Readout Value: 0.728
- Compound: "N[C@@H](Cc1ccc(N(CCCl)CCCl)cc1)C(=O)O [Melphalan hydrochloride]"
  Readout Value: 0.776
- Compound: "Cc1ccc(-n2nc(C(C)(C)C)cc2NC(=O)Nc2ccc(OCCN3CCOCC3)c3ccccc23)cc1"
  Readout Value: 0.806
- Compound: "Cc1ccc(C(=O)Nc2ccc(CN3CCN(C)CC3)c(C(F)(F)F)c2)cc1C#Cc1cnc2cccnn12"
  Readout Value: 0.454
- Compound: "C=CC(=O)Nc1cc(Nc2nccc(-c3cn(C)c4ccccc34)n2)c(OC)cc1N(C)CCN(C)C"
  Readout Value: 0.422
- Compound: "CS(=O)(=O)c1ccc(C(=O)Nc2ccc(Cl)c(-c3ccccn3)c2)c(Cl)c1"
  Readout Value: 0.867
- Compound: "CNC(=O)c1cc(Oc2ccc(NC(=O)Nc3ccc(Cl)c(C(F)(F)F)c3)c(F)c2)ccn1"
  Readout Value: 0.481

---

Quick reference: normalized area under the dose-response curve of the listed items.
Test system: SKMM2 (cancer type: MM)
Experiment Notes: normalized area under the dose-response curve (viability relative to DMSO control) (fraction); higher = less sensitive (more viable cells)
Condition Summary: exposure time not given
Readout Kind: normalized area under the dose-response curve

- Compound: "CO[C@H]1C[C@@H]2CC[C@@H](C)[C@@](O)(O2)C(=O)C(=O)N2CCCC[C@H]2C(=O)O[C@H]([C@H](C)C[C@@H]2CC[C@@H](OCCO)[C@H](OC)C2)CC(=O)[C@H](C)/C=C(\\C)[C@@H](O)[C@@H](OC)C(=O)[C@H](C)C[C@H](C)/C=C/C=C/C=C/1C [Everolimus]"
  Readout Value: 0.802
- Compound: "N#CC[C@H](C1CCCC1)n1cc(-c2ncnc3[nH]ccc23)cn1 [Ruxolitinib]"
  Readout Value: 0.958
- Compound: "Nc1nc(Cl)nc2c1ncn2[C@@H]1O[C@H](CO)[C@@H](O)[C@@H]1F [Clofarabine]"
  Readout Value: 0.728

---

System: Granta-519 (cancer type: Mantle)
Experiment Notes: normalized area under the dose-response curve (viability relative to DMSO control) (fraction); higher = less sensitive (more viable cells)
Condition Summary: exposure time not given
Quick reference: normalized area under the dose-response curve of the listed items.
Readout Kind: normalized area under the dose-response curve

- Compound: "CO[C@H]1C[C@@H]2CC[C@@H](C)[C@@](O)(O2)C(=O)C(=O)N2CCCC[C@H]2C(=O)O[C@H]([C@H](C)C[C@@H]2CC[C@@H](OCCO)[C@H](OC)C2)CC(=O)[C@H](C)/C=C(\\C)[C@@H](O)[C@@H](OC)C(=O)[C@H](C)C[C@H](C)/C=C/C=C/C=C/1C [Everolimus]"
  Readout Value: 0.783
- Compound: "Cc1[nH]c2ccccc2c1CCNCc1ccc(/C=C/C(=O)NO)cc1 [Panobinostat]"
  Readout Value: 0.424
- Compound: "Cc1noc2c1-c1ccccc1C(c1ccc(Cl)cc1)=N[C@H]2CC(N)=O [CPI0610]"
  Readout Value: 0.905
- Compound: "CC(=O)O[C@H]1C(=O)[C@@]2(C)[C@H]([C@H](OC(=O)c3ccccc3)[C@]3(O)C[C@H](OC(=O)[C@H](O)[C@@H](NC(=O)c4ccccc4)c4ccccc4)C(C)=C1C3(C)C)[C@]1(OC(C)=O)CO[C@@H]1C[C@@H]2O [Paclitaxel]"
  Readout Value: 0.544
- Compound: "COc1cc(Nc2c(C#N)cnc3cc(OCCCN4CCN(C)CC4)c(OC)cc23)c(Cl)cc1Cl [Bosutinib]"
  Readout Value: 0.771
- Compound: "Nc1ncn([C@H]2C[C@H](O)[C@@H](CO)O2)c(=O)n1 [Decitabine]"
  Readout Value: 0.978
- Compound: "CC(C)C[C@H](NC(=O)[C@H](CCc1ccccc1)NC(=O)CN1CCOCC1)C(=O)N[C@@H](Cc1ccccc1)C(=O)N[C@@H](CC(C)C)C(=O)[C@@]1(C)CO1 [Carfilzomib]"
  Readout Value: 0.094
- Compound: "Nc1nc(F)nc2c1ncn2[C@@H]1O[C@H](COP(=O)(O)O)[C@@H](O)[C@@H]1O [Fludarabine phosphate]"
  Readout Value: 0.949
- Compound: "CCCS(=O)(=O)Nc1ccc(F)c(C(=O)c2c[nH]c3ncc(-c4ccc(Cl)cc4)cc23)c1F [Vemurafenib]"
  Readout Value: 0.957
- Compound: "Cc1cn(-c2cc(NC(=O)c3ccc(C)c(Nc4nccc(-c5cccnc5)n4)c3)cc(C(F)(F)F)c2)cn1 [Nilotinib]"
  Readout Value: 0.953
- Compound: "COc1cc(C(=O)O)ccc1NC(=O)[C@@H]1N[C@@H](CC(C)(C)C)[C@](C#N)(c2ccc(Cl)cc2F)[C@H]1c1cccc(Cl)c1F [Idasanutlin]"
  Readout Value: 0.873
- Compound: "COC(=O)c1ccc2c(c1)NC(=O)/C2=C(\\Nc1ccc(N(C)C(=O)CN2CCN(C)CC2)cc1)c1ccccc1 [Nintedanib]"
  Readout Value: 0.942
- Compound: "CC(=O)c1c(C)c2cnc(Nc3ccc(N4CCNCC4)cn3)nc2n(C2CCCC2)c1=O [Palbociclib]"
  Readout Value: 0.876
- Compound: "Nc1cccc2c1CN(C1CCC(=O)NC1=O)C2=O (configuration not stated) [Lenalidomide]"
  Readout Value: 0.891
- Compound: "CS(=O)(=O)c1ccc(C(=O)Nc2ccc(Cl)c(-c3ccccn3)c2)c(Cl)c1 [Vismodegib]"
  Readout Value: 0.924
- Compound: "CN(C)C/C=C/C(=O)Nc1cc2c(Nc3ccc(F)c(Cl)c3)ncnc2cc1O[C@H]1CCOC1 [Afatinib]"
  Readout Value: 0.69
- Compound: "O=C(/C=C\\n1cnc(-c2cc(C(F)(F)F)cc(C(F)(F)F)c2)n1)NNc1cnccn1 [Selinexor]"
  Readout Value: 0.705
- Compound: "Nc1nc(Cl)nc2c1ncn2[C@H]1C[C@H](O)[C@@H](CO)O1 [Cladribine]"
  Readout Value: 0.523
- Compound: "O=C(c1ccc(OCCN2CCCCC2)cc1)c1c(-c2ccc(O)cc2)sc2cc(O)ccc12 [Raloxifene]"
  Readout Value: 0.939
- Compound: "Cc1nc(Nc2ncc(C(=O)Nc3c(C)cccc3Cl)s2)cc(N2CCN(CCO)CC2)n1 [Dasatinib]"
  Readout Value: 0.783
- Compound: "CC[C@H](Nc1ncnc2[nH]cnc12)c1nc2cccc(F)c2c(=O)n1-c1ccccc1 [Idelalisib]"
  Readout Value: 0.78
- Compound: "Cc1ccc(C(=O)Nc2ccc(CN3CCN(C)CC3)c(C(F)(F)F)c2)cc1C#Cc1cnc2cccnn12 [Ponatinib]"
  Readout Value: 0.755
